# MEASURED ON: EML4-ALK-S1206Y BaF3 cells (Homo sapiens, UniProt Q9UM73, S1206Y)
# Sequence (Q9UM73 1058-1620 S1206Y limits assumed): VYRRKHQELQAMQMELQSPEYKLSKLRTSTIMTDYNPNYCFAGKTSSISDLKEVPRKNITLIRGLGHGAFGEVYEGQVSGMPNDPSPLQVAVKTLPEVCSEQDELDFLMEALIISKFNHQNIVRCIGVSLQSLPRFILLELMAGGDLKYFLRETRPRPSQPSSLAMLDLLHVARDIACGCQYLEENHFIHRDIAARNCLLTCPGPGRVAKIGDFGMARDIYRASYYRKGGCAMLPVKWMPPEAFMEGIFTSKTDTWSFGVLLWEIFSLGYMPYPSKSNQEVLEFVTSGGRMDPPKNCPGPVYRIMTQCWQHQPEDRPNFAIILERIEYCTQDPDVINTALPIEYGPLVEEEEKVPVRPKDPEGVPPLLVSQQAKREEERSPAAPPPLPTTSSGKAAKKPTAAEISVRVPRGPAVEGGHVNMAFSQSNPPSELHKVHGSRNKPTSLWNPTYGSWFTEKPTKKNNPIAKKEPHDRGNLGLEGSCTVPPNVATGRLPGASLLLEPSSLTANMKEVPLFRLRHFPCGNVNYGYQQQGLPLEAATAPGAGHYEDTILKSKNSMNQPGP
# PROCEDURE TEXT: Growth inhibition of BaF3 cells stably transfected with ALK point mutation S1206Y
# EXPERIMENTAL SETUP: read-out: Growth inhibitory activity IC50, EML4-ALK-S1206Y
pIC50: −log10 of the molar value.
MEASUREMENT TYPE: pIC50

Q: Form field: pIC50 recorded for COc1cc2c(cc1Nc1nc(Nc3ccccc3S(=O)(=O)C(C)C)c3sccc3n1)N(C(=O)CN(C)C)CC2 with EML4-ALK-S1206Y BaF3 cells (Homo sapiens, UniProt Q9UM73, S1206Y) (enter value)
A: > 8.40
